Target: Serine protease 1 (Homo sapiens, UniProt P07477)
Sequence (P07477 whole entry): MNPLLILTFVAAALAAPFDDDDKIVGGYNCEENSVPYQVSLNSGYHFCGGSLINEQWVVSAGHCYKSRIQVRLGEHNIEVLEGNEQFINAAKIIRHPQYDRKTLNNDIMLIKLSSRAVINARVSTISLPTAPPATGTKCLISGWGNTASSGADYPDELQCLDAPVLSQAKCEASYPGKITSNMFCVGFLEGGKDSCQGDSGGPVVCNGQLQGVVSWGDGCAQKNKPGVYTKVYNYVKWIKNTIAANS
Assay: In vitro inhibitory activity against human trypsin
Consider the following molecules; for each one, report its pIC50.
Just the number, please; pIC50 means minus log10 of the concentration in mol/L.

Q) What pIC50 value was documented for this molecule, `Cn1c(C(=O)[C@H](CCCCN)NC(=O)[C@@H]2CC[C@H]3CN(C(=O)CCc4ccccc4)CC(=O)N32)nc2ccccc21` ?
A) 5.07

Q) What pIC50 value was documented for this molecule, `Cn1c(C(=O)[C@H](CCCNC(=N)N)NC(=O)[C@@H]2CC[C@H]3CN(C(=O)CCc4ccccc4)CC(=O)N32)nc2ccccc21` ?
A) 5.47

Q) What pIC50 value was documented for this molecule, `Cn1ccnc1C(=O)[C@H](CCCNC(=N)N)NC(=O)[C@@H]1CC[C@H]2CN(C(=O)CCc3ccccc3)CC(=O)N21` ?
A) 4.56

Q) What pIC50 value was documented for this molecule, `N=C(N)NCCC[C@H](NC(=O)[C@@H]1CC[C@H]2CN(C(=O)CCc3ccccc3)CC(=O)N21)C(=O)c1nc2c(s1)CCC2` ?
A) 8.70

----------
Reported values: pIC50 for Prothrombin (Homo sapiens), one per item.
pIC50: −log10 of the molar value.

Q) What pIC50 value was documented for this compound, N=C(N)N1CCCC(C[C@H](NC(=O)[C@@H]2CC[C@H]3CN(C(=O)CCc4ccccc4)CC(=O)N32)C(=O)c2nc3ccccc3s2)C1 (stereo partly drawn) ?
A) > 9.00

Q) What pIC50 value was documented for this compound, `N=C(N)NCCC[C@H](NC(=O)[C@@H]1CC[C@H]2CN(C(=O)CCc3ccccc3)CC(=O)N21)C(=O)c1nc2ccccc2s1` ?
A) > 9.00

Q) What pIC50 value was documented for this compound, `N=C(N)NCCC[C@H](NC(=O)[C@@H]1CC[C@H]2CN(C(=O)CCc3ccccc3)CC(=O)N21)C(=O)c1nc2c(s1)CCC2` ?
A) 7.74
